The reported numbers originate from the supplement of paper PMC6555819.

- Test system: PPARg:RXRa DBDmut IVT, anti-RXR (DBD mutation: RXRa K156A/R161A, NR concentration 270 nM, RXRa partner concentration 90 nM)
- test description: PBM binding z-score (relative to random genomic background probes); higher = stronger binding; sequences stand for … in GC…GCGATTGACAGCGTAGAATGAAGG
// label = Fulfilled if PBM binding z-score is not less than 2, otherwise Not fulfilled

[
  {
    "biopolymer sequence": "CCTTACGGTTCACTCCAGGTTATAGCATCGGAGT",
    "class assignment": "Not fulfilled"
  },
  {
    "biopolymer sequence": "AGAATGAGGTTAAGGTCAGGGAAACAGAATACAT",
    "class assignment": "Fulfilled"
  },
  {
    "biopolymer sequence": "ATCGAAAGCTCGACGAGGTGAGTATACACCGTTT",
    "class assignment": "Not fulfilled"
  }
]

Okay, now this sequence:
Reported PBM binding z-score at or above 2? ATCGAAAGTTCGAGGTGAGTATAGAGAAAGGGAA Not fulfilled

* * *

Overview of recorded PBM binding z-score for various sequences
- Tested on: RXRa DBDmut IVT, anti-RXR (DBD mutation: RXRa K156A/R161A, NR concentration 90 nM)
- test description: PBM binding z-score (relative to random genomic background probes); higher = stronger binding; sequences stand for … in GC…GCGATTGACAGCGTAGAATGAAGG
The reply should be a number, written without any unit.

[
  {
    "biopolymer sequence": "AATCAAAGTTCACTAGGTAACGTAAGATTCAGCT",
    "assay endpoint": "PBM binding z-score",
    "readout value": 4.32
  },
  {
    "biopolymer sequence": "ATATGTAGGTTCAGGGTCATTCAGGTTGGTTCGC",
    "assay endpoint": "PBM binding z-score",
    "readout value": 3.37
  },
  {
    "biopolymer sequence": "GCTAGTTGGTCAGGAAAAGGTCACACACCGGTCG",
    "assay endpoint": "PBM binding z-score",
    "readout value": 0.286
  }
]

// Input: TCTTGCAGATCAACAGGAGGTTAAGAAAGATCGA . Output its PBM binding z-score only. 0.162

Note down PBM binding z-score recorded for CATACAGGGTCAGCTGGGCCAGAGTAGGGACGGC 1.48

* * *

Here, each record is paired with measured PBM binding z-score data.
- System: LXRb:RXRa (NR concentration 270 nM, RXRa partner concentration 90 nM)
- test description: PBM binding z-score (relative to random genomic background probes); higher = stronger binding; sequences stand for … in GC…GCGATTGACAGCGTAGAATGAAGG

These recorded examples may help you get a feel for the data.
[
  {
    "biopolymer sequence": "ATAAGTAGGTTAGCTGGGGTCATTCAGACTAGGC",
    "assay endpoint": "PBM binding z-score",
    "readout value": 4.94
  },
  {
    "biopolymer sequence": "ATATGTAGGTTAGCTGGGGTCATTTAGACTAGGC",
    "assay endpoint": "PBM binding z-score",
    "readout value": 4.92
  },
  {
    "biopolymer sequence": "TCTGCGAGGTCAGTTGGTCAGCTAACGAGCTGCC",
    "assay endpoint": "PBM binding z-score",
    "readout value": 2.69
  },
  {
    "biopolymer sequence": "CAGCCTAGGGCAGGGCCAGTATAGGAGGAACGTT",
    "assay endpoint": "PBM binding z-score",
    "readout value": -1.11
  },
  {
    "biopolymer sequence": "ATCGAAAGGTCGTGAGGTGAGTATACAGAAAGGC",
    "assay endpoint": "PBM binding z-score",
    "readout value": 3.13
  },
  {
    "biopolymer sequence": "TAGCCTAGATCATGGGCCAGTATACCACGCGAAC",
    "assay endpoint": "PBM binding z-score",
    "readout value": -0.614
  },
  {
    "biopolymer sequence": "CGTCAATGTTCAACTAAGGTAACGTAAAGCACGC",
    "assay endpoint": "PBM binding z-score",
    "readout value": 0.536
  },
  {
    "biopolymer sequence": "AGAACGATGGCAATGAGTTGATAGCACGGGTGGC",
    "assay endpoint": "PBM binding z-score",
    "readout value": -1.05
  }
]

Give a short answer stating reported PBM binding z-score for TCTTGTAGATCAATAGAGGTTAAGATAGTGCGCT . 1.97

Output measured PBM binding z-score for this item: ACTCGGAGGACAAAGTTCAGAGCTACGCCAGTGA 0.868

Tell me its PBM binding z-score given GGAACGAGGGCATTCGAGTTGATTGCATGGCGAT as the entry. 0.105

Tell me its PBM binding z-score given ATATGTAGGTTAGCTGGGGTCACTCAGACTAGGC as the entry. 4.08

Fill in reported PBM binding z-score for this entry: AGAACGAGGGCACGCTGAGGTGATAGCAGAGTAG 0.0618

Supply recorded PBM binding z-score for AGAATGAGGTTAAGATCAGCGAAACAGAATACAT here. 1.54

Identify measured PBM binding z-score associated with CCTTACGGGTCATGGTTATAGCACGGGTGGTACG 2.68

Provide one value: measured PBM binding z-score of TCTCGCAGGACACGAAAGGTCAGAGCTCGACATC 3.17

# return recorded PBM binding z-score for input GCAGACAGGTGAAACGCAGTTAACTCAGGGTGGC -0.381

Given the sequence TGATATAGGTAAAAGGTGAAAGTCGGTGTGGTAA , write its reported PBM binding z-score. 1.96

Return reported PBM binding z-score. Input sequence: AATACAGGGTCACTAGTCCAGAGTAGGTACGAAT 3.94

Answer with the recorded PBM binding z-score for the sequence listed here: ACTTACGGGTCAACGAGGTTATATCACGCGTATA 4.54

Retrieve PBM binding z-score measured for TCTAGTTGGTCAAAGGTCACACTCTCGAAATGCG and print it. 5.32

Read off the recorded PBM binding z-score for ATCTCTAGGTAAAGATCAGTGAAAGATCGATAGA 0.0437

Return PBM binding z-score (reported value) for this sequence: CCAGACAGGTGAGAAGGTACCTCAGCCTCGATTA -0.357

* * *

- Test system: RARg homodimer (NR concentration 270 nM)
- test description: PBM binding z-score (relative to random genomic background probes); higher = stronger binding; sequences stand for … in GC…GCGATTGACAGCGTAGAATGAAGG
Each record here notes measured PBM binding z-score.
API note: the answer field is a bare number with no unit suffix.

Known results for sequences:
[
  {
    "biopolymer sequence": "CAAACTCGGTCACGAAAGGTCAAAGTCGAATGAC",
    "readout value": 7.47
  },
  {
    "biopolymer sequence": "GGAACGCGGGCAAGTTGATAGCAGAGTTTGATGG",
    "readout value": -0.0011
  },
  {
    "biopolymer sequence": "ATCTATAGGTAACCAAGTTCAGTGAATGCCGAAC",
    "readout value": 0.891
  },
  {
    "biopolymer sequence": "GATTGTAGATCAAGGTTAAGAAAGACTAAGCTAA",
    "readout value": 0.339
  },
  {
    "biopolymer sequence": "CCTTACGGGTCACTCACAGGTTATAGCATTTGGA",
    "readout value": 4.5
  }
]

// fetch PBM binding z-score given entry AGAATGAGGTTAAGATCAGGGAAACAGAATACAT 1.52

Answer with the recorded PBM binding z-score for the sequence listed here: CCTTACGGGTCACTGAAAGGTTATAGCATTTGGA 4.86

Supply PBM binding z-score value. Item: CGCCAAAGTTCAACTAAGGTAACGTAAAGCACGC 6.48

Item AGCATGAGGTTATTAAGATCAGGGAATTGCGGTC : provide PBM binding z-score 1.03

Input ATATGTAGGTTACATCCGGGCCATTCAGGCTATG , output reported PBM binding z-score. 0.995

Supply measured PBM binding z-score of ACTAGCACGCCAAGGGTCACTCAAGATTAGTCCG in your reply. 3.91

* * *

- Test system: PPARg:RXRa DBDmut IVT, anti-RXR (DBD mutation: RXRa K156A/R161A, NR concentration 270 nM, RXRa partner concentration 90 nM)
- test description: PBM binding z-score (relative to random genomic background probes); higher = stronger binding; sequences stand for … in GC…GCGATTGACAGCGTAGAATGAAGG
assay endpoint: PBM binding z-score
Please reply with the number alone, leaving off any unit.

[
  {
    "biopolymer sequence": "TCGAGTAGGCTAGTCGGGGCATTCAGCCAACATA",
    "PBM binding z-score": 0.821
  }
]

Respond only with PBM binding z-score recorded for AGTCGAAGTTCATCTAGGTAACGTAAGATATGCT 0.32

Identify PBM binding z-score associated with the sequence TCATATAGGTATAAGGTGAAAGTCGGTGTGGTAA 2.8

Look up and state reported PBM binding z-score for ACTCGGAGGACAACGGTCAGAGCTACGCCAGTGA 0.208

Provide only the value of recorded PBM binding z-score for CGAACTAGGTCATTGACAGGACAGTGACTAGTAA 8.03

Return reported PBM binding z-score. Input sequence: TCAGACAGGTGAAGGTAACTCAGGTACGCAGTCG 2.78

Retrieve PBM binding z-score measured for TCATATAGGTAATACAGGTGAATGTCGGCATCTA and print it. 4.3

Specify PBM binding z-score for ACTAGTTGGTCAGCTGAGGGCACACACAATTCGG and stop. 0.794

# return recorded PBM binding z-score for input TGTCAAAGTCCAAAGGTAACGTAAGTATCCACAC -0.118

Supply recorded PBM binding z-score for CCTTACGGGTCACTCCTGGTTATAGCATCGGAGT here. 2.58
